Please provide measured Percent RBC Binding to Siglec-5 for the entries that follow.
Target: T1, Human Siglec 5, Fc chimera (R&D Systems) (human, UniProt O15389 17-434, limits assumed)
T1 construct: Bought or recombinant Fc fusion; also called recombinant Siglec-5-Fc; not shown: Fc part
T1 sequence: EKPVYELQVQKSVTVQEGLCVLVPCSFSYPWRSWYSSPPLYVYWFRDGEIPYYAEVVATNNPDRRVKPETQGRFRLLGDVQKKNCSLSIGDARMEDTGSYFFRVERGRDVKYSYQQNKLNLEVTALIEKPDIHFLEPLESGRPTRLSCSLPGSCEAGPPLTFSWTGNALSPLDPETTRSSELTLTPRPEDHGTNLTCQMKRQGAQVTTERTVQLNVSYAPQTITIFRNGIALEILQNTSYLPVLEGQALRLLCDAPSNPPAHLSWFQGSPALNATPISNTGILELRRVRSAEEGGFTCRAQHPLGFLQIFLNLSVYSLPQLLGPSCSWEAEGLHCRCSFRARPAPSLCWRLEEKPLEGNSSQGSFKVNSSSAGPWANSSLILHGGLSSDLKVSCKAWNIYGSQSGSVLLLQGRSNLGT
Assay: RBC adhesion to plate-bound Siglec-5-Fc, 1.0 ug/ml mAb, percent of binding without antibody
Answer format: number, then unit.

>  <Binder>
anti-Siglec-5 monoclonal antibody 11C6 (antibody, IgG1, V domains shown, also called 1106) VH: QVQLQQSGAELVKPGASVKLSCKASGYTFTEYTIHWVKQRSGQGLEWIGWFYPGSGSIKYNEKFKDKATLTAVKSSSTVYMEFSRLTSEDSAVYFCARQDYDGLGFAYWGQGTLVTVSA VL: DVLMTQTPLSLPVSLGDQASISCRSSQTIVHSNGNTYLEWYLQKPGQSPKLLIYKVSNRFSGVPDRFSGSGSGTDFTLKISRVEAEDLGVYYCFQGSHVPWTFGGGTKLEIK

>  <Result>
4.76%

$$$$

API: the following record is the query input.
In one line, give reported Percent RBC Binding to Siglec-5 of the entry anti-Siglec-5 monoclonal antibody 5H2 (antibody, IgG1, V domains shown) VH: EVQLQQSGPELVKPGASVKVSCKASGYSFTDYNMYWVKQSHGKSLEWIGYIDPYNGGTSYNQKFKGKATLTVDKSSSTAFMLLNSLTSEDSAVYYCALYYDYDGIPYWGQGTLVTVSA VL: DIVMTQSQKFMSTSVGDRVSVTCKASQNVGTNVAWYRQKPGQSPKALIYSASYRYNGVPDRFTGSGSGTDFTLTISNVQSEDLAEYFCQQYNSYPYTFGGGTKLEIK .
9.94%

Data origin: patent US20210017275A1
